Catalogue of IC50 readings, one per entry.
- TARGET OR SYSTEM: recombinant PHD-bromodomain module of TRIM33 (Homo sapiens, UniProt Q9UPN9)
- Construct: rows headed: TRIM33 modulating activity; unit not given
- Sequence (Q9UPN9 1-1127): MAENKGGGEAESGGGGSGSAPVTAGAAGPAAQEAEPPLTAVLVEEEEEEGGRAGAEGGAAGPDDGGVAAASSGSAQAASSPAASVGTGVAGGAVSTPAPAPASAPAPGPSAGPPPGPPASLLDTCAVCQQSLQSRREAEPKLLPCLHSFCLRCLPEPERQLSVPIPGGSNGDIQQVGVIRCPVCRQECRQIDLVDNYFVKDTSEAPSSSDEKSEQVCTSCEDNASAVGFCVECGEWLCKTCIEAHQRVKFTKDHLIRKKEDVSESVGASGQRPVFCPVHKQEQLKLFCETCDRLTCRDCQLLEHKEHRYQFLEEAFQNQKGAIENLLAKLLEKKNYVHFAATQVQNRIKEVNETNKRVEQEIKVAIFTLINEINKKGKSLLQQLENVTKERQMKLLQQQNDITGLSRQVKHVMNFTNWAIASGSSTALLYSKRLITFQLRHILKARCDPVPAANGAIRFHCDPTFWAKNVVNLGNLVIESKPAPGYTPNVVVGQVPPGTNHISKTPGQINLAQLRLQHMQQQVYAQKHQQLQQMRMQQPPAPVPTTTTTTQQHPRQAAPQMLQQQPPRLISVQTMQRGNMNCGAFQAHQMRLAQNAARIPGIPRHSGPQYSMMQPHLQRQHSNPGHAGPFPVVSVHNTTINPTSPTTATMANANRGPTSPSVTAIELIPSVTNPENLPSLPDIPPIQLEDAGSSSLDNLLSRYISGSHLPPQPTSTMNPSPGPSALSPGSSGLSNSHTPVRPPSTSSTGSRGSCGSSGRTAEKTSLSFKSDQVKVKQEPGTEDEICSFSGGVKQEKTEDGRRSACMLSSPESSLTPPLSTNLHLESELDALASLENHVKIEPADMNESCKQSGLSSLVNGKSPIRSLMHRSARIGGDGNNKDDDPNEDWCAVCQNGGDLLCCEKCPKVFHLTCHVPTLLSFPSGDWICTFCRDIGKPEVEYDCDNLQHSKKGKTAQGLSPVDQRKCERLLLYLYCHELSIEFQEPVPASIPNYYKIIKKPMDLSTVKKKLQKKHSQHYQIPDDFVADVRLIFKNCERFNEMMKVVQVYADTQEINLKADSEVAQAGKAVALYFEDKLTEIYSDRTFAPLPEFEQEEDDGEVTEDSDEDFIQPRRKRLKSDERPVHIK
- PROTOCOL SUMMARY: AlphaScreen binding assay, TRIM33 with biotinylated H3K9me3K18ac peptide
- TEST CONDITIONS: compounds shown in Table 2a; called TRIM33 IC50 in title of Table 5; unit inferred; read-out: TRIM33 modulating activity
- Text: The IC50 or EC50 of the compound of the present application can be determined by various methods known in the art. For example, the IC50 or EC50 of the compound of the present application can be measured by an AlphaScreen assay, as described herein (see FIG. 1). A compound of the present application can be tested for its TRIM33 and/or TRIM24 activity with AlphaScreen Assay illustrated in FIG. 1. […]
QUANTITY: IC50 (µM)

• COc1ccc(CCNc2c(-c3ccc4nccn4c3)nc3ccccn23)cc1OC = 24.9
• COCCNc1c(-c2ccc3nccn3c2)nc2ccc(C(=O)OC)cn12 = 357
• COCCNc1c(-c2c[nH]c(C)n2)nc2cnccn12 = 286
• Cc1[nH]cnc1-c1nc2cnccn2c1NC1CCCCC1 = 116
• CCCOc1ccn2c(C(C)=O)cc(-c3nc4ccc(C(=O)OC)cn4c3NC3CCCCC3)c2c1 = 32.6
• COc1ccc(CCNc2c(-c3nc[nH]c3C)nc3cnccn23)cc1OC = 44.2
• CCCOc1cc(OCCCCN(C)C)cc(Oc2cc3c(cc2NS(=O)(=O)c2ccc(OC)c(OC)c2)n(C)c(=O)n3C)c1 [IACS9571, reference compound] = 10.6
• COC(=O)c1ccc2nc(-c3nc[nH]c3C)c(NCCc3ccc(OC)c(OC)c3)n2c1 = 12.6
